System: ANGPTL3 gene
Test: ANGPTL3 gRNA/SpCas9 editing in primary human hepatocytes (Table 3)
Assay type: cell-based
METRIC NAME: Human Primary Hepatocyte Editing % 500 ng/mL (%)
Give the value in % but do not write % after it.

molecule="GA117: ANGPTL3 gRNA; protospacer ACTACAAGTCAAAAATGAAG (SEQ ID NO: 115) (nucleic acid, 2'-O-methyl at 1, 2, other sugars and backbone not given here; further chemistry not fully specified) guide: ACTACAAGTCAAAAATGAAGGTTTTAGAGCTAGAAATAGCAAGTTAAAATAAGGCTAGTCCGTTATCAACTTGAAAAAGTGGCACCGAGTCGGTGCTTTT" recorded_measurement=16.55

stdin: // returns reported Human Primary Hepatocyte Editing % 500 ng/mL for input GA151: ANGPTL3 gRNA; protospacer GAGAACTACAAATATGGTTT (SEQ ID NO: 149) (nucleic acid, 2'-O-methyl at 1, 2, other sugars and backbone not given here; further chemistry not fully specified) guide: GAGAACTACAAATATGGTTTGTTTTAGAGCTAGAAATAGCAAGTTAAAATAAGGCTAGTCCGTTATCAACTTGAAAAAGTGGCACCGAGTCGGTGCTTTT
stdout: 31.88

stdin: // returns reported Human Primary Hepatocyte Editing % 500 ng/mL for input GA132: ANGPTL3 gRNA; protospacer GGAAGATAGAGAAATTTCTG (SEQ ID NO: 130) (nucleic acid, 2'-O-methyl at 1, 2, other sugars and backbone not given here; further chemistry not fully specified) guide: GGAAGATAGAGAAATTTCTGGTTTTAGAGCTAGAAATAGCAAGTTAAAATAAGGCTAGTCCGTTATCAACTTGAAAAAGTGGCACCGAGTCGGTGCTTTT
stdout: 28.39
